Biological target: HLA-B*51:01
Assay: IEDB peptide-MHC binding, purified MHC/competitive/radioactivity; filed as Kd, often an IC50 or EC50 that approximates it; bounds were set here for any values at or beyond the usual limits of such assays
Details: source organism: SARS coronavirus Tor2
pKd: −log10 of the molar value.
Assay Endpoint: pKd

>>> experimental_result("RPIFEWIEA")
6.38

---

Molecular target: HLA-B*40:02
Test: IEDB peptide-MHC binding, purified MHC/competitive/radioactivity; filed as Kd, often an IC50 or EC50 that approximates it; bounds were set here for any values at or beyond the usual limits of such assays
Conditions: source organism: Mammarenavirus brazilense
Assay Endpoint: Kd (µM)

>>> experimental_result("PEDQGNPIVL")
10.5

// provenance: the Immune Epitope Database (IEDB)
